# targetEntity: JAK2 (Homo sapiens (Human))
# Sequence (O60674 whole entry, species assumed): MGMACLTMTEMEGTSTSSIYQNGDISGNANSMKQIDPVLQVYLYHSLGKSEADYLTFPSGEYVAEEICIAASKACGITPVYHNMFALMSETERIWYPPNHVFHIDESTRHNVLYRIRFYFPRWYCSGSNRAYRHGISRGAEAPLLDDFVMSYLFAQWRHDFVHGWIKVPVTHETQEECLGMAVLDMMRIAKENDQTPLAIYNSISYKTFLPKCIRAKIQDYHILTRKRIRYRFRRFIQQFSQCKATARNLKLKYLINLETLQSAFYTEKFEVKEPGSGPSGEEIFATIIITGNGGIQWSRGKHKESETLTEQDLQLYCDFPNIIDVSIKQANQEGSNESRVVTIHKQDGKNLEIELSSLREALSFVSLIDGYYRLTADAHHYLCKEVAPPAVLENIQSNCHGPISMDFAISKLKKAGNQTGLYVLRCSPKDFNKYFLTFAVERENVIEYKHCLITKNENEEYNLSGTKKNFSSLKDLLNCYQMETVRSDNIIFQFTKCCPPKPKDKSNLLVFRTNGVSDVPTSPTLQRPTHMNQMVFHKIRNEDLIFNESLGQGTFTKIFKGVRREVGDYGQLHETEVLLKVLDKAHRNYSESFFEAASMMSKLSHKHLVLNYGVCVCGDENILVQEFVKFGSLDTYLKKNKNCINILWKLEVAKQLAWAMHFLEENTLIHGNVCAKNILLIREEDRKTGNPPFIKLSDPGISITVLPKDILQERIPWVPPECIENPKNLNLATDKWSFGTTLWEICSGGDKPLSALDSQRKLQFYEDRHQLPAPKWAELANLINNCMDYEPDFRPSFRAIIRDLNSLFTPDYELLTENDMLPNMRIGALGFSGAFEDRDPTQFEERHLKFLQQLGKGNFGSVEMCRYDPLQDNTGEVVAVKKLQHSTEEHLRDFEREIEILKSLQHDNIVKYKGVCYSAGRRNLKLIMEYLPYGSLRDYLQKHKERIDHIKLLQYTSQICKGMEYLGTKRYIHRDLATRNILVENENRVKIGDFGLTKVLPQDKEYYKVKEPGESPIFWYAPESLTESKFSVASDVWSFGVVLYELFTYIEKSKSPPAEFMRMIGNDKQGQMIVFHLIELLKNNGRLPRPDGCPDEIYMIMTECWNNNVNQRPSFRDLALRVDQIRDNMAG
# testMethodNotes: Biochemical kinase assay (33P-ATP filter-binding), JAK2
# conditionContext: Table 3a; read-out: IC50 JAK2
Provide the recorded IC50 for the entries that follow.
Numbers only, in nM.

Consider the following illustrative entries.
Recorded IC50 of CC1=Cc2cc(Nc3ncc(C)c(N[C@@H]4CCCC[C@H]4C#N)n3)ccc2OB1O (relative stereo) , please.
17.5

Try the compound Cc1cnc(Nc2ccc3c(c2)COB3O)nc1N[C@@H]1CCCC[C@H]1C#N (relative stereo)
3.4

Another: N#C[C@@H]1CCCC[C@H]1Nc1nc(Nc2cc(Cl)c3c(c2)COB3O)ncc1Cl (relative stereo)
3.2

Repeat for the following compound: N#C[C@@H]1CCC[C@H]1Nc1nc(Nc2cc(Cl)c3c(c2)COB3O)ncc1C(F)(F)F (relative stereo)
7.5

Repeat with Cc1cnc(Nc2ccc3c(c2)COB3O)nc1N[C@@H]1COCC[C@H]1C#N (single isomer, unassigned) [Example 026b]
95.3

Please state, for each entry, its recorded IC50.
1. N#C[C@H]1CCOC[C@@H]1Nc1nc(Nc2cc3c(c(C(F)(F)F)c2)B(O)OC3)ncc1Cl (single isomer, unassigned) [Example 042a]
2. Cc1cnc(Nc2cc(F)c3c(c2)COB3O)nc1N[C@@H]1COCC[C@H]1C#N (single isomer, unassigned) [Example 029a]
3. Cc1cnc(Nc2cc(Cl)c3c(c2)COB3O)nc1NC1CCCCC1C#N (racemic)
4. Cc1cnc(Nc2ccc3c(c2)C=CB(O)O3)nc1N[C@@H]1CCCC[C@H]1C#N (relative stereo)
5. CC1=Cc2cc(Nc3ncc(C)c(NC4COCCC4C#N)n3)ccc2OB1O (stereo not drawn)
6. N#C[C@@H]1CCCC[C@H]1Nc1nc(Nc2cc(Cl)c3c(c2)COB3O)ncc1F (relative stereo)
7. Cc1cnc(Nc2cc3c(c(C4CC4)c2)B(O)OC3)nc1N[C@@H]1COCC[C@H]1C#N (relative stereo)

7.3
3.7
19.3
103
23.7
50.7
24.2

Provenance of the data: patent US20240132525A1
